Hello, the source for this data is patent US20220259303A1, in case you need it.

This listing pairs binders with measured OD450 nm.
# testedOn: T1, CLD18A2
# T1 construct: also called claudin 18 splice variant A2; CHO-S-CLD18A2
# protocolDetails: cell ELISA, E. coli expression supernatant on CHO-S-CLD18A2
State just the number; it will be interpreted in OD450 nm.

Examples with their reported OD450 nm follow.
# binder, recordedNumber
measured = [
    ("Anti-C18.2-69 (VHH, not shown: small tags and cut ends, Treated as one molecule; also called C18-69) VHH: QVQLVESGGGLVQPGGSLRLSCAASGSIFSIPVMTWYRQALGKEREFVAGISKGGTSNYADSVKGRFTVSRDNAKNTVYLQMNSLKSEDTAVYYCNAQASSFGWMPLSDYWGQGTQVTVSS", 0.608),
    ("Anti-C18.2-32 (VHH, not shown: small tags and cut ends, Treated as one molecule; also called C18-32) VHH: QLQLVESGGGLVQPGGSLRLSCAASGEISSDAMAWYRQAPGKQRELVAGMTRGGSTNYADSVKGRFTISRDFAKNTVDLQMNSLKPEDTAVYYCNAEIYTGTFYPRSYWGQGTQVTVSS", 0.526),
    ("Anti-C18.2-28 (VHH, not shown: small tags and cut ends, Treated as one molecule; also called C18-28) VHH: QVQLVESGGGLVQPGGSLRLSCAASGSIFMINVMGWYRQAPGKQRELVAVITRGASTNYADSVKGRFTISRDNAKNTVYLQMNSLKPEDTAVYYCNADLNLASDPFKWYTYWGQGTQVTVSS", 0.47),
]

Continue with the next binder.
Which measured OD450 nm value corresponds to Anti-C18.2-20 (VHH, not shown: small tags and cut ends, Treated as one molecule; also called C18-20) VHH: QVQLVESGGGLVQPGGSLRLSCAASGSIFSINAMGWYRQAPGKQRELVAAITFGGGSTNYADSVKGRFTISRDNAKNTVYLQMNSLKPEDTAVYYCNADLLVGGFPRRNVYWGQGTQVTVSS ?
0.528
